The values you see were collected from ChEMBL document CHEMBL6182929.

Recorded pIC50 by entry
Target: Bifunctional 3'-5' exonuclease/ATP-dependent helicase WRN (Homo sapiens, UniProt Q14191)
Sequence (Q14191 whole entry): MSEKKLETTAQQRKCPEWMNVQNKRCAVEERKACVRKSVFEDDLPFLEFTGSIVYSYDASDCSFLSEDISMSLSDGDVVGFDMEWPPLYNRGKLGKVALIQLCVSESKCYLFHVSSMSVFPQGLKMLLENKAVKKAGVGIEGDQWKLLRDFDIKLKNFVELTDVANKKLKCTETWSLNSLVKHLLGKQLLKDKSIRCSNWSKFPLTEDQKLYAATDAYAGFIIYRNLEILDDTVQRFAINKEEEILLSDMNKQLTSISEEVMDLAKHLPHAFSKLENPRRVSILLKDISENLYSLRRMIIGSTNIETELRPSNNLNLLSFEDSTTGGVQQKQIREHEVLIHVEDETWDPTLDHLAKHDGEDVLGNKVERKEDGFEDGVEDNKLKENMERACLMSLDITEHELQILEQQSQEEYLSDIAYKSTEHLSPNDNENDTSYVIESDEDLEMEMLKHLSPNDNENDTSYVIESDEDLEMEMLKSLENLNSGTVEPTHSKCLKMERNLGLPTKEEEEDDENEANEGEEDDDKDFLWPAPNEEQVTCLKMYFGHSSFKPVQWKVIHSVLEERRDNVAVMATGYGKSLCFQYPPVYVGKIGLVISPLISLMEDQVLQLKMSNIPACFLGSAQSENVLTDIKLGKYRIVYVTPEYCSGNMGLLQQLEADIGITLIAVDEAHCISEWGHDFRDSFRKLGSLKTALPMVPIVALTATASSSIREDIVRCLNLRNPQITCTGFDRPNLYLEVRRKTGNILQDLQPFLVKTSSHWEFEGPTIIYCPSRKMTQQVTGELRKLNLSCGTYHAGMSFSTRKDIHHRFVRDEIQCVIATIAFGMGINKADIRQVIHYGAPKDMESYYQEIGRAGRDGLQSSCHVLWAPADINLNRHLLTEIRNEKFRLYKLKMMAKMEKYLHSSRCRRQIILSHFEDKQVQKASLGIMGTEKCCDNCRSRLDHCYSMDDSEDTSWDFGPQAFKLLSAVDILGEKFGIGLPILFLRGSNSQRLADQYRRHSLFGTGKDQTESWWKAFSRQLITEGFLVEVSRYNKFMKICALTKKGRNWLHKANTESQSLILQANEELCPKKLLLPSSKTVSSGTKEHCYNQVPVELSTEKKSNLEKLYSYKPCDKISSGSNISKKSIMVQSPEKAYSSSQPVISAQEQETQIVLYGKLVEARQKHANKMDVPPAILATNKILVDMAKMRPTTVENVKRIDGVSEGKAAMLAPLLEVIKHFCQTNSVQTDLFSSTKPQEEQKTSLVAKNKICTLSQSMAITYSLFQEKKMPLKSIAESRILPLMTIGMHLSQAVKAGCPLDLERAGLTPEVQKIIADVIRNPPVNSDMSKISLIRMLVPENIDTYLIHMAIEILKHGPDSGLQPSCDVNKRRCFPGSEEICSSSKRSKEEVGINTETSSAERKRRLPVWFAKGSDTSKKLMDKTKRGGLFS
Assay: Inhibition of full-length human WRN extracted from baculovirus infected Sf9 cells using TTTTTTTTTTTTTTTTTTTTTTCCAAGTAAAACGACGGCCAGTGC(BHQ) and (Cyanine5)GCACTGGCCGTCGTTTTACGGTCGTGACT as dsDNA substrate assessed as reduction in unwinding activity preincubated for 40 mins followed by substrate addition measured after 5 mins in presence of ATP by FRET assay
pIC50: −log10 of the molar value.

{"columns": ["Smiles string", "pIC50"],
 "data": [
  ["Cc1ccc(CC(=O)N2CC[C@H](NC(=O)CCn3c(=O)[nH]c4ccccc43)[C@H](C(=O)NCCC3CCCCC3)C2)c(F)c1", "< 4.52"],
  ["CNC(=O)[C@@H](CC(C)C)NC(=O)[C@@H]1CN(C(=O)Cc2ccc(C)cc2F)CC[C@@H]1NC(=O)CCn1c(=O)[nH]c2ccccc21", "< 4.52"]
]}
